# Tested on: K562 cell line
# protocol.text: CCK-8 anti-proliferative assay, K562
# Type: cell-based
# conditions.used: Homo sapiens, 72 h; K562, culture for 3 days, CCK-8, Table 2; read-out: IC50
measured.metric: pIC50
Convention used: pIC50 is expressed as -log10 of the molar concentration.

>>> df
                                   compound  assay_result
0  N#Cc1ccc(O[C@H]2CC[C@H](Nc3c(Nc4cc(C#N)cc(C(F)(F)F)c4)c(=O)c3=O)CC2)cc1 [Compound 84]          5.00

Record summary for O=c1c(Nc2cccc(Cl)c2)c(N[C@H]2CC[C@H](Oc3ccc([N+](=O)[O-])cc3)CC2)c1=O [Compound 20] : reported pIC50 = 4.79
